molecules and their reported pEC50
assay-system: PPARδ (Homo sapiens, UniProt Q03181)
Construct: a Gal4-Luciferase reporter is co-transfected
Sequence (Q03181 171-441 limits assumed): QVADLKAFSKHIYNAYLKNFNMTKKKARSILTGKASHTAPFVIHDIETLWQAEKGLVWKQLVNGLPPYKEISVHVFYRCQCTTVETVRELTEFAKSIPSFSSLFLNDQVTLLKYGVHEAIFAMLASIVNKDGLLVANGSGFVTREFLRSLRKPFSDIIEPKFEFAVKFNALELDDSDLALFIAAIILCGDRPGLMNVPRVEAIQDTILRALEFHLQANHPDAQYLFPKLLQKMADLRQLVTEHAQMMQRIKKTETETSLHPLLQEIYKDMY
assay-details: Transfection Assay for PPARδ Receptors (PPAR-Gal4 / Gal4-Luciferase reporter in HEK293 cells)
conditions: values in square brackets
pEC50: −log10 of the molar value.

Short answer please: pEC50, PPARδ (Homo sapiens, UniProt Q03181), entry CCN(C(=O)Nc1ccc(OC(F)(F)F)cc1)C1CCc2cc(SC(C)(C)C(=O)O)c(Br)cc2C1 (stereo not shown)
< 5.52

###

assay-system: PPARα (Rattus norvegicus, UniProt P37230)
Construct: H4IIE rat hepatoma cell line was obtained from ATCC; host or cells: H4IIE rat hepatoma cells
Sequence (P37230 whole entry): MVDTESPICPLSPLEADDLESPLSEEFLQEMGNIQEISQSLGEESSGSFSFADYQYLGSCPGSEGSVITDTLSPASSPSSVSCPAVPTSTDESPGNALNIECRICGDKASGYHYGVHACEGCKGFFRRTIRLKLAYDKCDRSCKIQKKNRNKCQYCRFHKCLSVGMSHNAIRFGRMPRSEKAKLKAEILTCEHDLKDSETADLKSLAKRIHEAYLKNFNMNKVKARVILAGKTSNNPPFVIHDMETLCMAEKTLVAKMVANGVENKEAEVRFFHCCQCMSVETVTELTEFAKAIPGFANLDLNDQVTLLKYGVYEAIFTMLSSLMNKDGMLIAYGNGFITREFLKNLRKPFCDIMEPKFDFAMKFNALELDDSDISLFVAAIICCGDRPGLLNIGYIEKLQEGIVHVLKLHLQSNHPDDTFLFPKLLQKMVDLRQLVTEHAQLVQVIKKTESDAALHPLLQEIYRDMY
assay-details: HD bDNA Assay (HD gene induction)
Type: cell-based
conditions: H4IIE rat hepatoma cells, 24 hours; read-out: PPARα EC50
Reported EC50 by item:
Give a bare numeral; the unit nM is implied.

Below, each entry is followed by its recorded EC50 result.
[[record]]
molecule = "CN(C)CCN(C(=O)Nc1ccc(SC(F)(F)F)cc1)C1Cc2ccc(SC(C)(C)C(=O)O)cc2C1 (stereo not shown)"
assay_system = "PPARα (Rattus norvegicus, UniProt P37230)"
measured_result = 2990

[[record]]
molecule = "CC(C)(Sc1ccc2c(c1)CC(N(Cc1cccc3ccccc13)C(=O)Nc1ccc(OC(F)(F)F)cc1)C2)C(=O)O (stereo not shown)"
assay_system = "PPARα (Rattus norvegicus, UniProt P37230)"
measured_result = 497

[[record]]
molecule = "CCN(C(=O)Nc1cccc(OC(F)(F)F)c1)C1Cc2ccc(SC(C)(C)C(=O)O)cc2C1 (stereo not shown)"
assay_system = "PPARα (Rattus norvegicus, UniProt P37230)"
measured_result = 130


Now examine the next entry.
Which value of EC50 has been reported for CC(C)(Sc1ccc2c(c1)CC(N(CCCC1CCCC1)C(=O)Nc1ccccc1)C2)C(=O)O (stereo not shown) in the records?
838

###

Reported PPARδ FI values for the following compounds.
assay-system: PPARδ (Homo sapiens, UniProt Q03181)
Construct: a Gal4-Luciferase reporter is co-transfected
Sequence (Q03181 171-441 limits assumed): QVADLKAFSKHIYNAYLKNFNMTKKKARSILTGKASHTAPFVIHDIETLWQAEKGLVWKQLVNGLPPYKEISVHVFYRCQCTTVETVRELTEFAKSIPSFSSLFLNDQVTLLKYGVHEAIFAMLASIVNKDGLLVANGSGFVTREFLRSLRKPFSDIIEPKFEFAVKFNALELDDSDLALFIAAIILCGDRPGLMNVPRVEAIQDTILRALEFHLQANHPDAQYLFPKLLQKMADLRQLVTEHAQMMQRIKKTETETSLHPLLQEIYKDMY
assay-details: Transfection Assay for PPARδ Receptors (PPAR-Gal4 / Gal4-Luciferase reporter in HEK293 cells); on PPARδ FI: test concentration or dose not given here
Type: cell-based
conditions: fold induction; PPARδ standard: FI = 36.1
A bare number is all that is needed in reply.

Before answering, review these 2 worked examples.
[[record]]
compound = "C=CCCCN(C(=O)Nc1ccc(OC(F)(F)F)cc1)C1Cc2ccc(SC(C)(C)C(=O)O)cc2C1 (stereo not shown)"
property_measured = "PPARδ FI"
measured_result = 1.4

[[record]]
compound = "CCN(C(=O)Nc1ccc(C(C)C)cc1)C1Cc2ccc(SC(C)(C)C(=O)O)cc2C1 (stereo not shown)"
property_measured = "PPARδ FI"
measured_result = 3.6


// fetch PPARδ (Homo sapiens, UniProt Q03181) PPARδ FI for CCCN(C(=O)Nc1ccc(C(F)(F)F)cc1)C1Cc2ccc(SC(C)(C)C(=O)O)cc2C1 (stereo not shown)
5.6

Under PPARδ (Homo sapiens, UniProt Q03181): PPARδ FI value of CCCN(C(=O)Nc1ccc(OC)cc1)C1Cc2ccc(SC(C)(C)C(=O)O)cc2C1 (stereo not shown) ?
1.5

What value of PPARδ FI on PPARδ (Homo sapiens, UniProt Q03181) does CCCCCN(C(=O)Nc1ccc(N(C)C)cc1)C1Cc2ccc(SC(C)(C)C(=O)O)cc2C1 (stereo not shown) have?
1.0

Any idea what PPARδ FI came out for CCCCCCN(C(=O)Nc1ccc(OC(F)(F)F)cc1)C1Cc2ccc(SC(C)(C)C(=O)O)cc2C1 (stereo not shown) on PPARδ (Homo sapiens, UniProt Q03181)?
1.3

What PPARδ FI appears in the records for this compound with PPARδ (Homo sapiens, UniProt Q03181)? CCCCCN(C(=O)Nc1ccc2ccccc2c1)C1Cc2ccc(SC(C)(C)C(=O)O)cc2C1 (stereo not shown)
9.3
